Values compiled from patent US20260258124A1.

studySystem: T1, human recombinant CD117 (c-Kit) from Sino Biological (Catalog No. 11996-H08H) (human, UniProt P10721 26-524)
T1 construct: also called soluble antigen
T1 sequence (P10721 26-524 limits assumed): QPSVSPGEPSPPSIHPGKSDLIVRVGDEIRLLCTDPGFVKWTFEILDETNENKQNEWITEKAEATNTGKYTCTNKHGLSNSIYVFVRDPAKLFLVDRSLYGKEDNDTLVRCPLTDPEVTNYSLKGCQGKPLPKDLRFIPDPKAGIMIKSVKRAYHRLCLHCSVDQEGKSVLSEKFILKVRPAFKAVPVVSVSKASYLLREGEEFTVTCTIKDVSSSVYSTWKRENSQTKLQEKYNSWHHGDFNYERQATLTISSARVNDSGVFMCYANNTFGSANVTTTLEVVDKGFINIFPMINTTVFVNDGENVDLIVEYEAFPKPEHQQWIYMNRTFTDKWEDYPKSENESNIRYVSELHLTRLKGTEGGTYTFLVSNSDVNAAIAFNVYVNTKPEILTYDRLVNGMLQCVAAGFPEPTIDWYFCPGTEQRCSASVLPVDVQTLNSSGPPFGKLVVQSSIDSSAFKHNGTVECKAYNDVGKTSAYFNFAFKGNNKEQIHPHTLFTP
experimentNotes: BLI Octet, set-up as in Example 2
pKd: −log10 of the molar value.
recordedEndpoint: pKd

[[record]]
binder = "Lagginhorn (antibody, V domains shown, IgG; also called VH1.2/VL1.17) VH: QVQLVQSGAEVKKPGASVKVSCKASGYTFTSYNMHWVRQAPGQGLEWMGVIYSGSGDTSYNQKFKGRVTMTTDTSTSTAYMELRSLTSDDTAVYYCARERDTRFGNWGQGTLVTVSA VL: EIVLTQSPSSLSASVGDRVTITCRASESVDIYGESFMHWYQQKPGKAPKLLIYLASNLESGVPSRFSGSGSGTDFTLTISSLQPEDFATYYCQQNNEEPYTFGQGTKLEIKR"
observed = 9.36

[[record]]
binder = "Piz Roseg (antibody, V domains shown, IgG; also called VH1/VL1.28) VH: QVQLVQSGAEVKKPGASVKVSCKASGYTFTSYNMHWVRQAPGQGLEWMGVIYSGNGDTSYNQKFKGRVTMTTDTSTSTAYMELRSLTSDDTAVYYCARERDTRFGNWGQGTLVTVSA VL: EIVLTQSPSSLSASVGDRVTITCRASESVDIYGSSFMHWYQQKPGKAPKLLIYKASNLESGVPSRFSGSGSGTDFTLTISSLQPEDFATYYCQQNKEEPYTFGQGTKLEIKR"
observed = 8.08

[[record]]
binder = "Dent Blanche (antibody, V domains shown, IgG; also called VH1/VL1.6) VH: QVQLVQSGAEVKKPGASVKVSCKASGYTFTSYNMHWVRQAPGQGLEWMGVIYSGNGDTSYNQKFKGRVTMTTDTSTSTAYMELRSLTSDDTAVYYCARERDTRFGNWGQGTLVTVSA VL: EIVLTQSPSSLSASVGDRVTITCRASESVDIYGFSFMHWYQQKPGKAPKLLIYLASNLESGVPSRFSGSGSGTDFTLTISSLQPEDFATYYCQQNNEDPYTFGQGTKLEIKR"
observed = 8.92

